# testSummary: Pharmacokinetics study in rats in vivo, intravenous administration
# Design: species or system SD male rats
# runConditions: Sprague-Dawley (SD), rat, plasma; SD male rats, intravenous injection at 300 mg/kg, dissolved in saline; read-out: C0 Initial concentration
recordedMetric: C0

INPUT: # C0 lookup, item NC[C@@H]1CN(C[C@@H]2[C@H](NC(=O)/C(=N\OC3(C(=O)O)CC3)c3csc(N)n3)C(=O)N2S(=O)O)S(=O)(=O)N1 (stereo in doubt)
OUTPUT: 1380 µM
